B1: TIA1 (parent)
chain: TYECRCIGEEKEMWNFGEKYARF

- Variants of: B1
- assay-notes: protein stability index of a GFP-peptide fusion (GPS, HEK-293T) (PSI 1-6); higher = more stable;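 also: lentivirally expressed fusions sorted by FACS into six bins by GFP to DsRed ratio, PSI derived from sequencing read proportions per bin multiplied by bin number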
- test-parameters: c terminus: native
Quick rule for you: protein stability index at 2 or higher means YES, lower means NO.

TYECRCIGEEKEMWNFGHKYARF [E18H] ... YES
TYECRCIGEEWEMWNFGEKYARF [K11W] ... NO
TYECRCIGEEKEMINFGEKYARF [W14I] ... YES
TYECRCIGHEKEMWNFGEKYARF [E9H] ... NO
TYECRCIREEKEMWNFGEKYARF [G8R] ... YES
TYECRCRGEEKEMWNFGEKYARF [I7R] ... NO

# evaluate next
Prompt: Does protein stability index meet or surpass 2 for TYECRCIGEEKEMWNFGEDYARF [K19D] ?
Response: YES
